Biological target: Luciferin 4-monooxygenase (Photinus pyralis) (UniProt P08659)
Sequence (P08659 whole entry, looked up): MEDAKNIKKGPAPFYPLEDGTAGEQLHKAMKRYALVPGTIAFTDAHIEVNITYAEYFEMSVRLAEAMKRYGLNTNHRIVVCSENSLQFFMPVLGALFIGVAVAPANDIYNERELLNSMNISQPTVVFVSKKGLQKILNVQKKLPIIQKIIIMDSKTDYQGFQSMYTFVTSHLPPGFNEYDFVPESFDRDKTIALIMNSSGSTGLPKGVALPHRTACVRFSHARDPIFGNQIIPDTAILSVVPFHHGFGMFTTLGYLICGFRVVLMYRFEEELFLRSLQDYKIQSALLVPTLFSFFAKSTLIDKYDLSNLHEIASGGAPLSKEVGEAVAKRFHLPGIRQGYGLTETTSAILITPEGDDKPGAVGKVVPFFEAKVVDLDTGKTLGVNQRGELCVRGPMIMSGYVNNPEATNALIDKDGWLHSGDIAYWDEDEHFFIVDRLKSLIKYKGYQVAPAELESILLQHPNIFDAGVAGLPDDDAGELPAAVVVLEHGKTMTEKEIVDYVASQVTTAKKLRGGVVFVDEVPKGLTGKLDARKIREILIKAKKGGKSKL
Assay: qHTS Assay for Inhibitors of Firefly Luciferase; also: nearly all actives have a fitted effect of over 40% in size
Details: purified firefly luciferase, luminescence, 8 min; series mostly up to 57.1 µM
The whole screen tested about 72,000 compounds, of which about 1,600 (2.2%) were called active. Calls follow the shape of the dose curve; as a rule, active = well fitted inhibition curve with a large enough effect; inconclusive = small, poorly fitted or top-dose-only effect; inactive = flat fitted curve, though single readings scatter. The sample as a whole holds a higher share of actives than the screen did.
Entry note: the call must match one of active, inactive

Known results for compounds:
>>> assigned_label("Cc1nc(SCC(=O)Nc2cc(C)on2)c2c(C)c(C)sc2n1")
"inactive"
>>> assigned_label("Cc1cc(C)n2nc(C(=O)Oc3ccc4c(c3)OCO4)nc2n1")
"inactive"
>>> assigned_label("CCOC(=O)Cc1csc(NC(=O)CSc2nc(C)cc(=O)[nH]2)n1")
"inactive"
>>> assigned_label("CCOC(=O)c1sc(NC(=O)c2cc(S(=O)(=O)N3CCOCC3)ccc2C)nc1C")
"inactive"
>>> assigned_label("Cc1cccc(-n2ncc3c(N4CCc5ccccc54)ncnc32)c1")
"inactive"

Query :: Which outcome did this test record for the compound `Cc1occc1C(=O)N1CCCc2ccccc21` ?
Result :: inactive

Query :: Which outcome did this test record for the compound `CCOC(=O)c1cc(-c2nnc(-c3cc(OC)c(OC)c(OC)c3)o2)c(C)nc1C` ?
Result :: inactive

Query :: Which outcome did this test record for the compound `COc1ccccc1C(=O)n1nc(-c2ccccc2)nc1N` ?
Result :: inactive

Query :: Which outcome did this test record for the compound `COC(=O)c1sc(NC(=O)c2csc3c2CCCC3)nc1C` ?
Result :: active

Query :: Which outcome did this test record for the compound `O=S(=O)(Nc1ccccn1)c1ccc(Oc2ccccc2)cc1` ?
Result :: inactive

Query :: Which outcome did this test record for the compound O=C1C(C=NCC2CCCO2)=C(O)c2ccccc21 (centres undefined) ?
Result :: active

Query :: Which outcome did this test record for the compound CC(=O)N1CSCC1C(=O)O (centres undefined) ?
Result :: inactive

Query :: Which outcome did this test record for the compound Cc1ccnc(N2CCCC(C(=O)Nc3cc(F)ccc3C)C2)n1 (centres undefined) ?
Result :: inactive

Query :: Which outcome did this test record for the compound `O=C(c1cnn2ccccc12)N1CCc2ccccc21` ?
Result :: active

Source of measurements: PubChem BioAssay AID411
